assay_method_text: chemical genetic growth profiling, strain panel (AID 1159580);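 further: tested at 20 µM; growth read once vehicle control cultures reached saturation at 30 °C; 1 = growth at the plate median or of vehicle wells; lower values mean less growth of the strain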
reported_conditions: S. cerevisiae deletion strains, growth OD, locus YOL078W, strain AVO1, stronger effect = lower value
The campaign covered roughly 5,500 compounds. About 2,000 (36%) were called active. Another 18% or so got no clear call; they are omitted. Some of the results follow.
Please provide measured normalized growth for the entries that follow.
Please state the value as a number alone, without comment.

Q. Which normalized growth is listed for COc1cc(C(=O)Oc2c(Cl)cc(Cl)cc2C=Nc2cccc([N+](=O)[O-])c2)cc(OC)c1OC ?
A. 0.978

Q. Same question, CCOC(=O)NC(=S)NC12CC3CC(CC(C3)C1)C2 this time
A. 0.972

Q. Same question, CN(C)/C=C/C(=O)c1ccc(C#Cc2ccccc2)cc1 this time
A. 0.98

Q. Same question, O=C1/C(=C/c2c(F)cccc2Cl)Cc2ccccc21 this time
A. 0.962

Q. Same question, CCOC(=O)c1c(N=Cc2cc(Br)c(Br)cc2O)sc2c1CCCC2 this time
A. 0.967

Q. Same question, O=C(NCc1ccco1)c1csc(C2COc3ccccc3O2)n1 (stereo unspecified) this time
A. 0.928
